- ASSAYED SYSTEM: Tyrosine-protein kinase Mer (Homo sapiens) (UniProt Q12866)
- Sequence (Q12866 whole entry): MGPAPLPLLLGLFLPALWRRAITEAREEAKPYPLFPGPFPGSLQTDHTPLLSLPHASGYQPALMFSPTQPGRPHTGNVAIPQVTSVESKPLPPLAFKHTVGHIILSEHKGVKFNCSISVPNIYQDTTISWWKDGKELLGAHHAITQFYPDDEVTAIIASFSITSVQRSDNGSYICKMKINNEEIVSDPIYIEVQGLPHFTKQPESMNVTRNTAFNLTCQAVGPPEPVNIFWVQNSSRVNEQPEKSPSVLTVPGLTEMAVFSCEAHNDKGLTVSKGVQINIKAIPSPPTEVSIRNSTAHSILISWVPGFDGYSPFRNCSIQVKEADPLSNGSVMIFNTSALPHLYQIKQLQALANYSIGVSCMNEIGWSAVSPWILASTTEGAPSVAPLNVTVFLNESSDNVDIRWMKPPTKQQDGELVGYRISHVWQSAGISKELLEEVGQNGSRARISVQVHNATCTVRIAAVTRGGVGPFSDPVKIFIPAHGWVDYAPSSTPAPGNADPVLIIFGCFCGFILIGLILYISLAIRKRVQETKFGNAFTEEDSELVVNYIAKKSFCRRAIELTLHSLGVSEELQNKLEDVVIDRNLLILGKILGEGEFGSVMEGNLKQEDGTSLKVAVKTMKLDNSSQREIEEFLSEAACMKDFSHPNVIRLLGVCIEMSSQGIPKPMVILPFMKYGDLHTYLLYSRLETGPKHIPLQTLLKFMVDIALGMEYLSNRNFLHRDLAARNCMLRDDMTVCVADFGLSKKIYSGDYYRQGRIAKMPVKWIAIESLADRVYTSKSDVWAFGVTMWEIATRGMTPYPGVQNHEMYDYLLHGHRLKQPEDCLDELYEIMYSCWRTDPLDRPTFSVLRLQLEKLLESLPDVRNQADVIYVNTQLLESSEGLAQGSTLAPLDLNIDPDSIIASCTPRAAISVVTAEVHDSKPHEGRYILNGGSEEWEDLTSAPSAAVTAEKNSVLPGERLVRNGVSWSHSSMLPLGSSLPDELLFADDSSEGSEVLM
- PROCEDURE DETAILS: Inhibition of Mer (unknown origin) at 0.5 uM relative to control
Recorded inhibition for the following compounds

SUBSTANCE SMILES	inhibition
Cc1cc(F)ccc1-n1cccc(C(=O)Nc2ccc(Oc3cc(N)ncn3)c(F)c2)c1=O	53%
O=C(Nc1ccc(Oc2cc(NCCN3CCOCC3)ncn2)c(F)c1)c1cccn(-c2ccc(F)cc2)c1=O	90%
O=C(Nc1ccc(Oc2ncnc3[nH]cnc23)c(F)c1)c1cccn(-c2ccc(F)cc2)c1=O	77%

###

Recorded inhibition for the following compounds
- ASSAYED SYSTEM: Tyrosine-protein kinase ABL1 (Homo sapiens)
- PROCEDURE DETAILS: Inhibition of phosphorylated form of Abl1 (unknown origin) at 1 uM relative to control

SUBSTANCE SMILES	UNIT SPEC	inhibition
Nc1cc(Oc2ccc(NC(=O)c3cccn(-c4ccc(F)cc4)c3=O)cc2)ncn1	%	0
CCOc1ccn(-c2ccc(F)cc2)c(=O)c1C(=O)Nc1ccc(Oc2ccnc(N)c2Cl)c(F)c1	%	35
Nc1nccc(Oc2ccc(NC(=O)c3cccn(-c4ccc(F)cc4)c3=O)cc2F)n1	%	0
Nc1cc(Oc2ccc(NC(=O)c3cccn(-c4ccc(F)cc4)c3=O)cc2F)ncn1	%	0
O=C(Nc1ccc(Oc2cc(NCCN3CCOCC3)ncn2)c(F)c1)c1cccn(-c2ccc(F)cc2)c1=O	%	0
Cc1cc(F)ccc1-n1cccc(C(=O)Nc2ccc(Oc3cc(N)ncn3)c(F)c2)c1=O	%	0
O=C(Nc1ccc(Oc2ncnc3[nH]cnc23)c(F)c1)c1cccn(-c2ccc(F)cc2)c1=O	%	0
Nc1cc(Oc2ccc(NC(=O)c3cccn(-c4ccc(F)cc4F)c3=O)cc2F)ncn1	%	4

###

- ASSAYED SYSTEM: UniProt P08581
- Sequence (P08581 whole entry): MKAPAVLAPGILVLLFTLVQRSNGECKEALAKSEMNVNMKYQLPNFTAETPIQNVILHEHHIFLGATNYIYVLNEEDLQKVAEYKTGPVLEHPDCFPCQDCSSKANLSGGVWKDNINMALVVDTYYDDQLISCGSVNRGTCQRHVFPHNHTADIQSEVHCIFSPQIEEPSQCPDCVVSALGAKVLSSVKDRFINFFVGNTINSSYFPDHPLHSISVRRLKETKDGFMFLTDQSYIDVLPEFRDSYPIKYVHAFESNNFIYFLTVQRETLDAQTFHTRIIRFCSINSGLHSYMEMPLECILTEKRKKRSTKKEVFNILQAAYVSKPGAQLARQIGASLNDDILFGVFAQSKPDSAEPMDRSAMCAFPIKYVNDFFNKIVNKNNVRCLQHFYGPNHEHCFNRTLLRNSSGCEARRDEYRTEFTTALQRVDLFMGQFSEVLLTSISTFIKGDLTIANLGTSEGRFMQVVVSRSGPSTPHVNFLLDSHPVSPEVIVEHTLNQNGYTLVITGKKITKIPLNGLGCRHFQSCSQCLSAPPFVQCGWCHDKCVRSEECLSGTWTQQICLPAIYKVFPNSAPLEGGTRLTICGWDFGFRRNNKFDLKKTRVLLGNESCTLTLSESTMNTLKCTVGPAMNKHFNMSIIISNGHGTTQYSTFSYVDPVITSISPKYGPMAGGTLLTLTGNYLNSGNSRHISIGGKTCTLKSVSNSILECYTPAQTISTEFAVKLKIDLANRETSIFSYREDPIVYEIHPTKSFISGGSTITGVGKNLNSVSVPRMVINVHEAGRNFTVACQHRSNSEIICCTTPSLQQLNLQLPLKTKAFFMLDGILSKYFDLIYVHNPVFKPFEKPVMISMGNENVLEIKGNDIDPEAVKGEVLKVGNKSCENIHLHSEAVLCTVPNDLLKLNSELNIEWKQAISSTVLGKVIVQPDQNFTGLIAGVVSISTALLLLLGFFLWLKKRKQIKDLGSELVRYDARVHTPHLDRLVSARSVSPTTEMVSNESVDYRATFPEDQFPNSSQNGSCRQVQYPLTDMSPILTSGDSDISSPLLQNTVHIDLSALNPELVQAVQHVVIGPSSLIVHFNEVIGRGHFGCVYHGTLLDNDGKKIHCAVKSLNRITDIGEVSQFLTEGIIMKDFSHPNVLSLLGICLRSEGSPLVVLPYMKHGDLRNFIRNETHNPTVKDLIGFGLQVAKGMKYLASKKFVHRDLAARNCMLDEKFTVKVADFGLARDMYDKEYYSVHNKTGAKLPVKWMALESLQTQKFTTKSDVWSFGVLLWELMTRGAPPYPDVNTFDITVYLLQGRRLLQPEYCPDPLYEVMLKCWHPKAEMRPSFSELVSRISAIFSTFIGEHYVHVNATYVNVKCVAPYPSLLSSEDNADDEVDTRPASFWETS
- PROCEDURE DETAILS: Inhibition of Met (unknown origin) at 1 uM relative to control
Recorded inhibition for the following compounds
MEASURED ENDPOINT: inhibition (%)

SUBSTANCE SMILES	UNIT SPEC	MEAS VALUE
CCOc1ccn(-c2ccc(F)cc2)c(=O)c1C(=O)Nc1ccc(Oc2ccnc(N)c2Cl)c(F)c1	%	95
O=C(Nc1ccc(Oc2ncnc3[nH]cnc23)c(F)c1)c1cccn(-c2ccc(F)cc2)c1=O	%	98
Cc1cc(F)ccc1-n1cccc(C(=O)Nc2ccc(Oc3cc(N)ncn3)c(F)c2)c1=O	%	100
Nc1cc(Oc2ccc(NC(=O)c3cccn(-c4ccc(F)cc4)c3=O)cc2)ncn1	%	98
Nc1nccc(Oc2ccc(NC(=O)c3cccn(-c4ccc(F)cc4)c3=O)cc2F)n1	%	100

###

Recorded inhibition for the following molecules
- ASSAYED SYSTEM: Tyrosine-protein kinase ABL1 (Homo sapiens) (UniProt P00519)
- Sequence (P00519 whole entry): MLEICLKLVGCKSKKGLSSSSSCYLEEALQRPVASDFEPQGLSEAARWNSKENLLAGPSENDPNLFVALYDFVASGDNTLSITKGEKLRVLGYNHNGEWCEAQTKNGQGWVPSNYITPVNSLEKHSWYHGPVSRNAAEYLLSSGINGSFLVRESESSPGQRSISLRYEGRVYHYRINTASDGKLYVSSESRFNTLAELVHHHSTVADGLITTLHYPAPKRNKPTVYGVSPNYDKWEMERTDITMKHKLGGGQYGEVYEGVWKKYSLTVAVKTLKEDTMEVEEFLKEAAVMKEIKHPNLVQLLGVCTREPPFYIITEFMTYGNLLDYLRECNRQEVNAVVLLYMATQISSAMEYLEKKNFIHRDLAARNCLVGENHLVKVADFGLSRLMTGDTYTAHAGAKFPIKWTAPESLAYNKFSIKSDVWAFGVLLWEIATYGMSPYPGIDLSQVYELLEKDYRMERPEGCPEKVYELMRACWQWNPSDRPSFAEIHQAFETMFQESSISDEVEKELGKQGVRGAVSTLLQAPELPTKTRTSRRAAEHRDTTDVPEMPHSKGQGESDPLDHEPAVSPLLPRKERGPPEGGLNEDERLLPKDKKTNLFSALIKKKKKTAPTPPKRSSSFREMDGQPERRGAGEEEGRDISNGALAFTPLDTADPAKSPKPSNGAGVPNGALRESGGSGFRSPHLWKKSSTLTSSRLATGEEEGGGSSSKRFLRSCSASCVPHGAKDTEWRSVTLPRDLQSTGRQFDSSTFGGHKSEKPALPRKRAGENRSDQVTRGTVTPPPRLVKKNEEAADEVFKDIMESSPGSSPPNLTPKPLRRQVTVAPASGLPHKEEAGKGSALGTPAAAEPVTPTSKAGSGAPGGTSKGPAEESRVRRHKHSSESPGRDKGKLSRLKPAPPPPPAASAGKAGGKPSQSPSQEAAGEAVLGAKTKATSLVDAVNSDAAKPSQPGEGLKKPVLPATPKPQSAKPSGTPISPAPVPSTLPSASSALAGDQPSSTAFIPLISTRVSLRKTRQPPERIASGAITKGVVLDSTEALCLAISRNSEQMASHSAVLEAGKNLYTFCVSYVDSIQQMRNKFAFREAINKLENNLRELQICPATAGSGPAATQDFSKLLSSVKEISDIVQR
- PROCEDURE DETAILS: Inhibition of non-phosphorylated form of Abl1 (unknown origin) at 0.5 uM relative to control
MEASURED ENDPOINT: inhibition (%)

SUBSTANCE SMILES	MEASURED ENDPOINT	MEAS VALUE
Nc1cc(Oc2ccc(NC(=O)c3cccn(-c4ccc(F)cc4F)c3=O)cc2F)ncn1	inhibition	25
Nc1cc(Oc2ccc(NC(=O)c3cccn(-c4ccc(F)cc4)c3=O)cc2)ncn1	inhibition	14
O=C(Nc1ccc(Oc2cc(NCCN3CCOCC3)ncn2)c(F)c1)c1cccn(-c2ccc(F)cc2)c1=O	inhibition	12
Nc1nccc(Oc2ccc(NC(=O)c3cccn(-c4ccc(F)cc4)c3=O)cc2F)n1	inhibition	27
Cc1cc(F)ccc1-n1cccc(C(=O)Nc2ccc(Oc3cc(N)ncn3)c(F)c2)c1=O	inhibition	10
O=C(Nc1ccc(Oc2ncnc3[nH]cnc23)c(F)c1)c1cccn(-c2ccc(F)cc2)c1=O	inhibition	17
Nc1cc(Oc2ccc(NC(=O)c3cccn(-c4ccc(F)cc4)c3=O)cc2F)ncn1	inhibition	23

Data provenance: ChEMBL document CHEMBL3091325
